# maps each entry to its Ratio Ki
Assay: Selectivity ratio of Ki for sigma 1 receptor in guinea pig brain to Ki for sigma 2 receptor in rat liver membrane
Format: cell membranes

[
  {
    "compound": "COc1cc2c(cc1OC)CN(CCCNC(=O)c1cc(C)ccc1OC)CC2",
    "Ratio Ki": 203
  },
  {
    "compound": "COc1cc(Br)c(C(=O)NCCCN2CCc3cc(OC)c(OC)cc3C2)cc1OC",
    "Ratio Ki": 50
  },
  {
    "compound": "COc1cc2c(cc1OC)CN(CCCNC(=O)C1CCCc3c(OC)cccc31)CC2 (stereo unspecified)",
    "Ratio Ki": 7
  },
  {
    "compound": "COc1cc2c(cc1OC)CN(CCCCNC(=O)c1cc(C)ccc1OC)CC2",
    "Ratio Ki": 247
  },
  {
    "compound": "COc1cc2c(cc1OC)CN(CCCN1CCc3ccccc3C1=O)CC2",
    "Ratio Ki": 147
  },
  {
    "compound": "COc1cc(Br)cc(C(=O)NCCCN2CCN(C3CCCCC3)CC2)c1OC",
    "Ratio Ki": 1.2
  },
  {
    "compound": "COc1ccc(C)cc1C(=O)NCCCN1CCN(C2CCCCC2)CC1",
    "Ratio Ki": 1.7
  },
  {
    "compound": "O=C1c2ccccc2CCN1CCCN1CCN(C2CCCCC2)CC1",
    "Ratio Ki": 1
  },
  {
    "compound": "COc1cc2c(cc1OC)CN(CCCNC(=O)c1cc(Br)cc(OC)c1OC)CC2",
    "Ratio Ki": 341
  },
  {
    "compound": "COc1cc(Br)c(C(=O)NCCCN2CCN(C3CCCCC3)CC2)cc1OC",
    "Ratio Ki": 0.6
  },
  {
    "compound": "COc1cccc2c1CCCC2C(=O)NCCCN1CCN(C2CCCCC2)CC1 (stereo unspecified)",
    "Ratio Ki": 2
  }
]

====

Test: Lipophilicity, log D of the compound at pH 7.4
Assay type: physicochemical
Conditions: buffer
Reported logD values are given for each entry in this list.

[
  {
    "molecule": "COc1cc2c(cc1OC)CN(CCCN1CCc3ccccc3C1=O)CC2",
    "logD": 2.25
  },
  {
    "molecule": "COc1cc(Br)cc(C(=O)NCCCN2CCN(C3CCCCC3)CC2)c1OC",
    "logD": 2.43
  },
  {
    "molecule": "COc1cc2c(cc1OC)CN(CCCNC(=O)c1cc(C)ccc1OC)CC2",
    "logD": 2.7
  },
  {
    "molecule": "COc1cc2c(cc1OC)CN(CCCNC(=O)C1CCCc3c(OC)cccc31)CC2 (stereo not drawn)",
    "logD": 3.21
  },
  {
    "molecule": "COc1cc(Br)c(C(=O)NCCCN2CCN(C3CCCCC3)CC2)cc1OC",
    "logD": 2.11
  },
  {
    "molecule": "COc1cc2c(cc1OC)CN(CCCCNC(=O)c1cc(C)ccc1OC)CC2",
    "logD": 2.83
  },
  {
    "molecule": "COc1cccc2c1CCCC2CCCN1CCN(C2CCCCC2)CC1 (stereo not drawn)",
    "logD": 3.75
  },
  {
    "molecule": "COc1cccc2c1CCCC2C(=O)NCCCN1CCN(C2CCCCC2)CC1 (stereo not drawn)",
    "logD": 2.46
  },
  {
    "molecule": "COc1cc(Br)c(C(=O)NCCCN2CCc3cc(OC)c(OC)cc3C2)cc1OC",
    "logD": 2.89
  },
  {
    "molecule": "COc1cc2c(cc1OC)CN(CCCC1CCCc3c(OC)cccc31)CC2 (stereo not drawn)",
    "logD": 4.33
  },
  {
    "molecule": "COc1cc2c(cc1OC)CN(CCCNC(=O)c1cc(Br)cc(OC)c1OC)CC2",
    "logD": 3.22
  },
  {
    "molecule": "O=C1c2ccccc2CCN1CCCN1CCN(C2CCCCC2)CC1",
    "logD": 1.49
  },
  {
    "molecule": "COc1ccc(C)cc1C(=O)NCCCN1CCN(C2CCCCC2)CC1",
    "logD": 1.94
  }
]

====

Listed here are compounds together with their documented pKi.
Target: Sigma non-opioid intracellular receptor 1 (Cavia porcellus, UniProt Q60492)
Sequence (Q60492 whole entry): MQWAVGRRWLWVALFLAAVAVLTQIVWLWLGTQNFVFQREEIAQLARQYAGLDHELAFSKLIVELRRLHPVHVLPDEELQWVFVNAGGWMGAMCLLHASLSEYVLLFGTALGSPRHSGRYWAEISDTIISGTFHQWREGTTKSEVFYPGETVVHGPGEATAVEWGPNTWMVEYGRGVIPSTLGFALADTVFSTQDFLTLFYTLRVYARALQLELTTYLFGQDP
Experiment: Displacement of [3H]-pentazocine from sigma 1 receptor in guinea pig brain after 30 mins by radioligand binding assay
pKi: −log10 of the molar value.
measured-quantity: pKi

[
  {
    "query-smiles": "COc1cc2c(cc1OC)CN(CCCN1CCc3ccccc3C1=O)CC2",
    "test-system": "Sigma non-opioid intracellular receptor 1 (Cavia porcellus, UniProt Q60492)",
    "result": 6.15
  },
  {
    "query-smiles": "COc1cc(Br)c(C(=O)NCCCN2CCN(C3CCCCC3)CC2)cc1OC",
    "test-system": "Sigma non-opioid intracellular receptor 1 (Cavia porcellus, UniProt Q60492)",
    "result": 6.57
  },
  {
    "query-smiles": "COc1cc(Br)c(C(=O)NCCCN2CCc3cc(OC)c(OC)cc3C2)cc1OC",
    "test-system": "Sigma non-opioid intracellular receptor 1 (Cavia porcellus, UniProt Q60492)",
    "result": 5.59
  },
  {
    "query-smiles": "COc1ccc(C)cc1C(=O)NCCCN1CCN(C2CCCCC2)CC1",
    "test-system": "Sigma non-opioid intracellular receptor 1 (Cavia porcellus, UniProt Q60492)",
    "result": 7.34
  },
  {
    "query-smiles": "O=C1c2ccccc2CCN1CCCN1CCN(C2CCCCC2)CC1",
    "test-system": "Sigma non-opioid intracellular receptor 1 (Cavia porcellus, UniProt Q60492)",
    "result": 7.61
  },
  {
    "query-smiles": "COc1cc2c(cc1OC)CN(CCCCNC(=O)c1cc(C)ccc1OC)CC2",
    "test-system": "Sigma non-opioid intracellular receptor 1 (Cavia porcellus, UniProt Q60492)",
    "result": 5.67
  }
]

====

Ki overview
Assay: Displacement of [3H]-DTG from sigma 2 receptor in rat liver membrane after 30 mins by radioligand binding assay
Type: cell membranes

[
  {
    "compound": "COc1cc(Br)cc(C(=O)NCCCN2CCN(C3CCCCC3)CC2)c1OC",
    "Ki": "21.2 nM"
  },
  {
    "compound": "COc1ccc(C)cc1C(=O)NCCCN1CCN(C2CCCCC2)CC1",
    "Ki": "26.1 nM"
  },
  {
    "compound": "Cc1ccccc1NC(=N)Nc1ccccc1C [DITOLYLGUANIDINE]",
    "Ki": "26.3 nM"
  },
  {
    "compound": "COc1cc(Br)c(C(=O)NCCCN2CCN(C3CCCCC3)CC2)cc1OC",
    "Ki": "467 nM"
  },
  {
    "compound": "COc1cccc2c1CCCC2C(=O)NCCCN1CCN(C2CCCCC2)CC1 (stereo not drawn)",
    "Ki": "16.5 nM"
  },
  {
    "compound": "COc1cccc2c1CCCC2CCCN1CCN(C2CCCCC2)CC1 (stereo not drawn)",
    "Ki": "0.68 nM"
  },
  {
    "compound": "COc1cc(Br)c(C(=O)NCCCN2CCc3cc(OC)c(OC)cc3C2)cc1OC",
    "Ki": "50.9 nM"
  },
  {
    "compound": "COc1cc2c(cc1OC)CN(CCCNC(=O)C1CCCc3c(OC)cccc31)CC2 (stereo not drawn)",
    "Ki": "21.1 nM"
  },
  {
    "compound": "COc1cc2c(cc1OC)CN(CCCN1CCc3ccccc3C1=O)CC2",
    "Ki": "4.84 nM"
  },
  {
    "compound": "O=C1c2ccccc2CCN1CCCN1CCN(C2CCCCC2)CC1",
    "Ki": "26.6 nM"
  },
  {
    "compound": "COc1cc2c(cc1OC)CN(CCCCNC(=O)c1cc(C)ccc1OC)CC2",
    "Ki": "8.68 nM"
  },
  {
    "compound": "COc1cc2c(cc1OC)CN(CCCNC(=O)c1cc(Br)cc(OC)c1OC)CC2",
    "Ki": "12.9 nM"
  },
  {
    "compound": "COc1cc2c(cc1OC)CN(CCCNC(=O)c1cc(C)ccc1OC)CC2",
    "Ki": "2.63 nM"
  }
]

====

Target: Sigma non-opioid intracellular receptor 1 (Cavia porcellus, UniProt Q60492)
Experiment: Displacement of [3H]-pentazocine from sigma 1 receptor in guinea pig brain after 30 mins by radioligand binding assay
pKi: −log10 of the molar value.
Each entry gets Criterion not met if its pKi stays under 7, and Criterion met if its pKi is 7 or above.

[
  {
    "compound": "COc1cc2c(cc1OC)CN(CCCNC(=O)c1cc(Br)cc(OC)c1OC)CC2",
    "assigned-label": "Criterion not met"
  },
  {
    "compound": "COc1cc(Br)cc(C(=O)NCCCN2CCN(C3CCCCC3)CC2)c1OC",
    "assigned-label": "Criterion met"
  },
  {
    "compound": "COc1cccc2c1CCCC2C(=O)NCCCN1CCN(C2CCCCC2)CC1 (stereo unspecified)",
    "assigned-label": "Criterion met"
  },
  {
    "compound": "COc1cc2c(cc1OC)CN(CCCNC(=O)c1cc(C)ccc1OC)CC2",
    "assigned-label": "Criterion not met"
  }
]

Provenance of the data: ChEMBL document CHEMBL1828588
